Where these numbers come from: PubChem BioAssay AID2314

Measurement description: Cycloheximide Counterscreen for Small Molecule Inhibitors of Shiga Toxin; note: read at 38.3 µM for the half of the compounds with a filed dose; 0% is about no effect
Experimental conditions: cell reporter, cycloheximide protein synthesis inhibition counterscreen; stronger effect = higher value
Out of some 300,000 compounds screened, about 37,000 (12%) were called active. The sample holds actives, similar compounds and a random draw of the others, so the mix is not that of the screen.
Task for the reader: assign each of the following molecules its reported max response.
One number for each entry, in %.

Known results for molecules:
Cc1cc(C)cc(NC(=O)C2CCCN2S(=O)(=O)c2cccc3cccnc23)c1 (stereo not given) :: 0.222
CN(C)CCCNC(=O)c1cc(C(=O)Cc2ccc(Cl)cc2)c[nH]1 :: 0.733
CC(=O)Nc1ccc(S(=O)(=O)NCC2CCC(C(=O)NCCc3ccccc3)CC2)cc1 (stereo not given) :: -1.06
CCCc1nnc(SCC(=O)N2C(C)CCCC2C)n1CC (stereo not given) :: 7.27

Report max response for each item below.
1. CC(=O)Nc1ccc(SCC(=O)Nc2ccccc2Oc2ccccc2)cc1
2. CC1(C)Cc2cccc(OCC(=O)NCc3ccccc3)c2O1
3. COc1ccc(CCNC(=O)NS(=O)(=O)c2ccc(C)cc2)cc1OC
4. COc1ccc2ccccc2c1CNCc1ccccn1

1: 0.468; 2: -11.4; 3: -2.33; 4: 20.7

Report max response for each item below.
1. COc1ccc(N2CCC(CNC(=S)Nc3c(C)cccc3C)C2)cc1 (stereo not given)
2. O=C(NNC(=S)NC(=O)c1cn(-c2ccccc2)nc1-c1ccccc1)c1ccncc1
3. Cc1cc(Cl)c2oc(C(=O)N(C)C(C)c3ccccn3)c(C)c2c1 (stereo not given)
4. O=c1oc(-c2ccco2)nc2sc3c(c12)CCCCC3
5. COc1cc(S(=O)(=O)N2CCN=C2c2ccccc2)ccc1Cl

-1.13
2.78
28.7
15
3.04

Report max response for each item below.
1. COc1ccc(C)cc1NC(=O)NCc1ccccn1
2. O=C(NCc1ccco1)c1cccn2c(=O)c3c4c(sc3nc12)CCCC4
3. O=C(CC(=O)N/N=C\c1cccc(Cl)c1Cl)NCc1ccccc1
4. Cc1cccc(N(C(=O)Cn2nnc(-c3ccc(C)o3)n2)C(C(=O)NC2CCCC2)c2ccncc2)c1 (stereo not given)
5. O=C(N/N=C/c1ccccc1O)/C(=C/c1ccccc1)CCO
6. COc1cccc(N(CC(=O)NC2CCCC2)C(=O)Cn2nnc(-c3ccc(C)o3)n2)c1

1: -3.22; 2: 13.5; 3: 8.71; 4: 1.36; 5: 16.6; 6: -3.92

Report max response for each item below.
1. COc1ccc(S(=O)(=O)N2CCOC2CNC(=O)C(=O)NCc2ccncc2)cc1OC (stereo not given)
2. Cc1cc(Oc2ccc(Cl)cc2)nc(SCC(=O)c2ccccc2)n1

1. -2.13
2. 0.695

Report max response for each item below.
1. CCN1CCN(C(=O)c2ccccc2N(C)S(=O)(=O)c2ccc(C)cc2)CC1
2. Cc1[nH]c2c(C(=O)N3CCCC(CCC(=O)NCc4ccccc4F)C3)cccc2c1C (stereo not given)

[-3.44, 18.9]

Report max response for each item below.
1. CC1CCCC(C)N1C(=O)CSc1nnnn1C1CCCC1 (stereo not given)
2. Cc1c(C)n(Cc2ccc(Cl)cc2)c2ccc(C(=O)NCCCN3CCOCC3)cc12
3. CC(CC(=O)N1CCN(c2ccccc2)CC1)S(=O)(=O)c1ccc2c(c1)NC(=O)CS2 (stereo not given)
4. Cc1ccc(CS(=O)Cc2ccc(C(=O)N3CCOCC3)o2)cc1 (stereo not given)
5. Cc1ccc(-c2nc(CS(=O)(=O)CC(=O)NCc3ccc4c(c3)OCO4)c(C)o2)cc1
6. CCN(CC)C(=O)N1CCN(C(=O)c2ccc(C)cn2)CC1
7. Cc1cc(Cl)c2oc(C(=O)NC(C)c3ccncn3)c(C)c2c1 (stereo not given)

1: 25.7; 2: -6.61; 3: 1.2; 4: 0.901; 5: -6.73; 6: 27.2; 7: 6.71

Report max response for each item below.
1. O=C1NC(=Nc2ccc(Cl)cc2)SC1Cc1cccc(Cl)c1Cl (stereo not given)
2. Cn1c(CC2Sc3ccccc3NC2=O)nnc1SCC(=O)c1ccc(Cl)cc1 (stereo not given)

[-3.08, 6.52]

Report max response for each item below.
1. O=C(CCC1CCCN(Cc2ccc(O)c(Cl)c2)C1)NCc1ccccc1F (stereo not given)
2. CCCN1C2CCCC1CC(NC(=O)NC13CC4CC(CC(C4)C1)C3)C2 (stereo not given)
3. CC(=O)NN1C(=O)c2ccccc2NC1c1ccccc1 (stereo not given)

[-1.08, 0.762, -3.65]
